Where these numbers come from: patent US20210130436A1

Target: T1, CD28 on Jurkat/IL2 reporter cells (human, UniProt P10747 19-220)
T1 construct: whole, on cells; Endogenous CD28 of Jurkat cells; also called Jurkats (CD28)
Assay: flow cytometry, Jurkat cells (CD28); MFI relative to WT CD80
endpoint: Fold change to WT CD80 (fold)

Examples with their reported Fold change to WT CD80 follow.
>  <binder>
variant CD80 IgV-Fc H18Y/E35D (Fc fusion, not shown: a dimerising Fc or GST) VIHVTKEVKEVATLSCGYNVSVEELAQTRIYWQKDKKMVLTMMSGDMNIWPEYKNRTIFDITNNLSIVILALRPSDEGTYECVVLKYEKDAFKREHLAEVTLSVKAD

>  <unit.abbrev>
fold

>  <Fold change to WT CD80>
7.3

$$$$
>  <binder>
variant CD80 IgV-Fc E35D/M43I/D46E/A71G/L85M (Fc fusion, not shown: a dimerising Fc or GST) VIHVTKEVKEVATLSCGHNVSVEELAQTRIYWQKDKKMVLTMISGEMNIWPEYKNRTIFDITNNLSIVILGLRPSDEGTYECVVMKYEKDAFKREHLAEVTLSVKAD

>  <unit.abbrev>
fold

>  <Fold change to WT CD80>
3

$$$$
>  <binder>
variant CD80 IgV-Fc Q27L/E35D/M47V/I61V/L85M (Fc fusion, not shown: a dimerising Fc or GST) VIHVTKEVKEVATLSCGHNVSVEELALTRIYWQKDKKMVLTMMSGDVNIWPEYKNRTIFDVTNNLSIVILALRPSDEGTYECVVMKYEKDAFKREHLAEVTLSVKAD

>  <unit.abbrev>
fold

>  <Fold change to WT CD80>
3.5

$$$$

a. variant CD80 IgV-Fc E35D/M47I/N48K/I61F (Fc fusion, not shown: a dimerising Fc or GST) VIHVTKEVKEVATLSCGHNVSVEELAQTRIYWQKDKKMVLTMMSGDIKIWPEYKNRTIFDFTNNLSIVILALRPSDEGTYECVVLKYEKDAFKREHLAEVTLSVKAD
b. variant CD80 IgV-Fc H18Y/E35D/M47L/A71G/A91S (Fc fusion, not shown: a dimerising Fc or GST) VIHVTKEVKEVATLSCGYNVSVEELAQTRIYWQKDKKMVLTMMSGDLNIWPEYKNRTIFDITNNLSIVILGLRPSDEGTYECVVLKYEKDSFKREHLAEVTLSVKAD
c. variant CD80 IgV-Fc E35D/D46E/L85M (Fc fusion, not shown: a dimerising Fc or GST) VIHVTKEVKEVATLSCGHNVSVEELAQTRIYWQKDKKMVLTMMSGEMNIWPEYKNRTIFDITNNLSIVILALRPSDEGTYECVVMKYEKDAFKREHLAEVTLSVKAD
List these items ordered by Fold change to WT CD80, big to small. Put the labels in the order asked and list them.
a, b, c

a. variant CD80 IgV-Fc V22A/E35D/M47L/A71G (Fc fusion, not shown: a dimerising Fc or GST) VIHVTKEVKEVATLSCGHNVSAEELAQTRIYWQKDKKMVLTMMSGDLNIWPEYKNRTIFDITNNLSIVILGLRPSDEGTYECVVLKYEKDAFKREHLAEVTLSVKAD
b. variant CD80 IgV-Fc E35D/M47V (Fc fusion, not shown: a dimerising Fc or GST) VIHVTKEVKEVATLSCGHNVSVEELAQTRIYWQKDKKMVLTMMSGDVNIWPEYKNRTIFDITNNLSIVILALRPSDEGTYECVVLKYEKDAFKREHLAEVTLSVKAD
Hi team, can someone confirm which has the larger Fold change to WT CD80: a or b ? Thanks. # respond with the chosen item's label
a
(a: 15 fold, b: 7 fold)
